experiment-summary: Selectivity index, ratio of IC50 for cytotoxicity against mouse RAW264.7 cells to IC50 for antitrypanosomal activity against blood stream form of Trypanosoma brucei Lister 427
Type: toxicity, cell-based
run-conditions: read-out: Ratio IC50
reported-endpoint: selectivity ratio

Solved entries:
chem-smiles	selectivity ratio
Cc1ccc(C(F)(F)F)c(COc2cc(NC(=O)c3cccc(C(=N)N)c3)ccc2N(C)S(=O)(=O)C(F)(F)F)c1	3.9
CCS(=O)(=O)N(C)c1ccc(NC(=O)c2cccc(C(=N)N)c2)cc1OCc1ccc(C(=N)N)cc1	847
COc1ccc(OC)c(COc2cc(NC(=O)c3cc(C(F)(F)F)cc(C(F)(F)F)c3)ccc2NC(=N)N)c1	2.45

[ask] What does the record list as selectivity ratio for CN(c1ccc(NC(=O)c2cccc(C(=N)N)c2)cc1OCc1ccc(C(=N)N)cc1)S(=O)(=O)Cc1ccccc1 ?
[reply] 50000

[ask] What does the record list as selectivity ratio for CN(c1ccc(NC(=O)c2ccc(C(=N)N)cc2)cc1OCc1ccc(C(F)(F)F)cc1)S(=O)(=O)C(F)(F)F ?
[reply] 10

[ask] What does the record list as selectivity ratio for CN(c1ccc(NC(=O)c2cccc(C(=N)N)c2)cc1OCc1ccc(C(F)(F)F)cc1)S(=O)(=O)Cc1ccccc1 ?
[reply] 36.3

[ask] What does the record list as selectivity ratio for COc1ccc(OC)c(COc2cc(NC(=O)c3ccc4c(c3)OCO4)ccc2NC(=N)N)c1 ?
[reply] 10

[ask] What does the record list as selectivity ratio for Cc1ccc(C)c(COc2cc(NC(=O)c3ccc(Cl)c(Cl)c3)ccc2NC(=N)N)c1 ?
[reply] 18.1

----------
experiment-summary: Cytotoxicity against HEK293 cells assessed as inhibition of cell growth incubated for 48 hrs by MTT assay
Assay type: toxicity, cell-based
run-conditions: human
Reported IC50 at 48 h values follow for various molecules
I only need the number, in µM, no unit after it.

Solved entries:
chem-smiles	reading
N=C(N)Nc1ccc(NC(=O)c2ccc3c(c2)OCO3)cc1OCc1ccc(C(F)(F)F)cc1	344
N=C(N)Nc1ccc(NC(=O)c2ccc3c(c2)OCO3)cc1OCc1ccccc1C(F)(F)F	450
N=C(N)Nc1ccc(NC(=O)c2ccc(C(F)(F)F)cc2C(F)(F)F)cc1OCc1ccc(C(F)(F)F)cc1	286

[ask] What does the record list as IC50 at 48 h for CCCCCCOc1cc(NC(=O)c2ccc3c(c2)OCO3)ccc1NC(=N)N ?
[reply] 385

[ask] What does the record list as IC50 at 48 h for COc1ccc(C(=O)Nc2ccc(NC(=N)N)c(OCc3cccc(C(F)(F)F)c3)c2)cc1 ?
[reply] 263

[ask] What does the record list as IC50 at 48 h for COc1ccc(OC)c(COc2cc(NC(=O)c3cc(C(F)(F)F)cc(C(F)(F)F)c3)ccc2NC(=N)N)c1 ?
[reply] 307

[ask] What does the record list as IC50 at 48 h for N=C(N)Nc1ccc(NC(=O)c2ccc3c(c2)OCO3)cc1OCc1cccc(C(F)(F)F)c1 ?
[reply] 313

[ask] What does the record list as IC50 at 48 h for Cc1ccc(C(F)(F)F)c(COc2cc(NC(=O)c3cccc(C(=N)N)c3)ccc2N(C)S(=O)(=O)C(F)(F)F)c1 ?
[reply] 25

[ask] What does the record list as IC50 at 48 h for N=C(N)Nc1ccc(NC(=O)c2cc(C(F)(F)F)cc(C(F)(F)F)c2)cc1OCc1ccc(C(F)(F)F)cc1 ?
[reply] 416

[ask] What does the record list as IC50 at 48 h for CCS(=O)(=O)N(C)c1ccc(NC(=O)c2cccc(C(=N)N)c2)cc1OCc1ccc(C(=N)N)cc1 ?
[reply] 426
